# Tested on: bone marrow stem cells
# Measurement Protocol: bone marrow stem cell proliferation (XTT)
# Format: cell-based, C57/BL6 mice
# Condition Context: 7 days, XTT 492 nm
Value Type: Max amplitude (O.D)
All answers are understood in O.D, so give the number only.

For orientation, consider the following solved cases.
| Compound | Value Type | Value Reported |
| --- | --- | --- |
| CCCCCCCCCCCC(=O)O[C@H](CCCCCCCCCCC)CC(=O)N[C@H](CC(=O)O)C(=O)NCCC[C@H](COC(=O)CCCCCNC(=O)CCC(=O)OC[C@H]1O[C@@H](n2cc(C)c(=O)[nH]c2=O)C[C@@H]1N=[N+]=[N-])NC(=O)C[C@H](O)CCCCCCCCCCC | Max amplitude | 1.08 |
| CCCCCCCCCCCC(=O)O[C@H](CCCCCCCCCCC)CC(=O)NC(CCOP(=O)(O)O)C(=O)NCCCC(COC(=O)CCCCCO)NC(=O)C[C@H](O)CCCCCCCCCCC (stereo partly shown) | Max amplitude | 1.07 |
| CCCCCCCCCCCC(=O)O[C@H](CCCCCCCCCCC)CC(=O)NC(CCOP(=O)(O)O)C(=O)NCCCC(COC(=O)CCCCC(O)CO)NC(=O)C[C@H](O)CCCCCCCCCCC (stereo partly shown) | Max amplitude | 1.52 |

Name the reported Max amplitude value associated with the compound CCCCCCCCCCCC(=O)O[C@H](CCCCCCCCCCC)CC(=O)NC(CCOP(=O)(O)O)C(=O)NCCC[C@H](COC(=O)CCCCCN)NC(=O)C[C@H](O)CCCCCCCCCCC (mixture of isomers) [OM-197-MP-AC (R/S, R)]
2.12

For the compound CCCCCCCCCCCC(=O)O[C@H](CCCCCCCCCCC)CC(=O)N[C@H](CC(=O)O)C(=O)NCCC[C@H](COC(=O)CCCCC(O)CO)NC(=O)C[C@H](O)CCCCCCCCCCC (stereo partly shown) , what Max amplitude is on record?
1.75

Please report the recorded Max amplitude for CCCCCCCCCCCC(=O)O[C@H](CCCCCCCCCCC)CC(=O)N[C@H](CC(=O)O)C(=O)NCCC[C@H](COC(=O)CCC(=O)O)NC(=O)C[C@H](O)CCCCCCCCCCC .
2.16

Sample CCCCCCCCCCCC(=O)O[C@H](CCCCCCCCCCC)CC(=O)N[C@H](CC(=O)N[C@@H](CCCCN)C(=O)O)C(=O)NCCC[C@H](CO)NC(=O)C[C@H](O)CCCCCCCCCCC — what was its Max amplitude?
1.56

If you can, please state the reported Max amplitude value of CCCCCCCCCCCC(=O)O[C@H](CCCCCCCCCCC)CC(=O)N[C@H](CC(=O)N[C@@H](CC(=O)O)C(=O)O)C(=O)NCCC[C@H](CO)NC(=O)C[C@H](O)CCCCCCCCCCC .
1.22

Could you share which Max amplitude value was measured for CCCCCCCCCCCC(=O)O[C@H](CCCCCCCCCCC)CC(=O)N[C@H](CC(=O)N[C@@H](CC(=O)O)C(=O)O)C(=O)NCCC[C@H](COC(=O)CCCCCN)NC(=O)C[C@H](O)CCCCCCCCCCC ?
1.33

What measured Max amplitude goes with CCCCCCCCCCCC(=O)O[C@H](CCCCCCCCCCC)CC(=O)N[C@@H](CCOP(=O)(O)O)C(=O)NCCC[C@H](COC(=O)CCCCCO)NC(=O)C[C@H](O)CCCCCCCCCCC [OM-197-MP-AC (S, R)] ?
1.22

Find the recorded Max amplitude belonging to CCCCCCCCCCCC(=O)O[C@H](CCCCCCCCCCC)CC(=O)N[C@H](CC(=O)NCCCN)C(=O)NCCC[C@H](CO)NC(=O)C[C@H](O)CCCCCCCCCCC and report it.
1.49

What value of Max amplitude has been reported for the following compound? CCCCCCCCCCCC(=O)O[C@H](CCCCCCCCCCC)CC(=O)N[C@H](CC(=O)O)C(=O)NCCC[C@H](COC(=O)CCCCCN)NC(=O)C[C@H](O)CCCCCCCCCCC
1.62
